system: PA-TU-8988T (Pancreatic Carcinoma); assay: combination Emax (second highest fraction inhibited in the dose matrix, 72 h); higher = more inhibition; extreme values may be limits of the assay
Entries and their combination Emax values follow.
measurement_type: combination Emax

{"compound": "CC1(C)CCC(CN2CCN(c3ccc(C(=O)NS(=O)(=O)c4ccc(NCC5CCOCC5)c([N+](=O)[O-])c4)c(Oc4cnc5[nH]ccc5c4)c3)CC2)=C(c2ccc(Cl)cc2)C1 [Venetoclax] + COc1cc(Nc2ncc3c(n2)-c2ccc(Cl)cc2C(c2c(F)cccc2OC)=NC3)ccc1C(=O)O [Alisertib] (first compound max 1 µM, 7x7, partner max 10 µM)", "measurement_type": "combination Emax", "test_result": 0.403}
{"compound": "Cn1cnc2c(F)c(Nc3ccc(Br)cc3Cl)c(C(=O)NOCCO)cc21 [Selumetinib] + C[C@@H]1COCCN1C2=NC(=NC(=C2)C3(CC3)[S@](=N)(=O)C)C4=C5C=CNC5=NC=C4 [AZD6738] (first compound max 10 µM, 7x7, partner max 10 µM)", "measurement_type": "combination Emax", "test_result": 0.466}
{"compound": "CCc1c2c(nc3ccc(O)cc13)-c1cc3c(c(=O)n1C2)COC(=O)[C@]3(O)CC [SN-38] + O=C(c1cc(Cc2n[nH]c(=O)c3ccccc23)ccc1F)N1CCN(C(=O)C2CC2)CC1 [Olaparib] (first compound max 0.3 µM, 7x7, partner max 10 µM)", "measurement_type": "combination Emax", "test_result": 0.604}
{"compound": "Cn1cnc2c(F)c(Nc3ccc(Br)cc3Cl)c(C(=O)NOCCO)cc21 [Selumetinib] + CCN(CCO)CCCOc1ccc2c(Nc3cc(CC(=O)Nc4cccc(F)c4)[nH]n3)ncnc2c1 [AZD2811] (first compound max 10 µM, 7x7, partner max 1 µM)", "measurement_type": "combination Emax", "test_result": 0.321}
{"compound": "CC1(C)CCC(CN2CCN(c3ccc(C(=O)NS(=O)(=O)c4ccc(NCC5CCOCC5)c([N+](=O)[O-])c4)c(Oc4cnc5[nH]ccc5c4)c3)CC2)=C(c2ccc(Cl)cc2)C1 [Venetoclax] + C1CN(CCC1(C(=O)N[C@@H](CCO)C2=CC=C(C=C2)Cl)N)C3=NC=NC4=C3C=CN4 [Capivasertib] (first compound max 1 µM, 7x7, partner max 3 µM)", "measurement_type": "combination Emax", "test_result": 0.219}
{"compound": "CC(=O)c1c(C)c2cnc(Nc3ccc(N4CCNCC4)cn3)nc2n(C2CCCC2)c1=O [Palbociclib] + CN(CC[C@H](CSC1=CC=CC=C1)NC2=C(C=C(C=C2)S(=O)(=O)NC(=O)C3=CC=C(C=C3)N4CCC(CC4)[C@H](C5=CC=CC=C5C6=CC=C(C=C6)Cl)O)S(=O)(=O)C(F)(F)F)CCO [AZD4320] (first compound max 10 µM, 7x7, partner max 1 µM)", "measurement_type": "combination Emax", "test_result": 0.33}
{"compound": "Cc1cc2ncnn2cc1Nc1ncc2c(n1)n(C1CCOCC1)c(=O)n2C [AZD7648] + O=C(c1cc(Cc2n[nH]c(=O)c3ccccc23)ccc1F)N1CCN(C(=O)C2CC2)CC1 [Olaparib] (first compound max 10 µM, 7x7, partner max 10 µM)", "measurement_type": "combination Emax", "test_result": 0.339}

###

system: HT-1080 (Other Solid Carcinomas); assay: Bliss excess, mean over the matrix (fraction); higher = more synergy
Where Bliss excess equals or exceeds -0.01, the correct label is 1; where it does not, the label is 0.

{"molecule": "CN(C)CCCOc1ccc(-c2ccc3ncc4c(c3c2)n(C2CCOCC2)c(=O)n4C)cn1 [AZD0156] + C[C@@H]1COCCN1C2=NC(=NC(=C2)C3(CC3)[S@](=N)(=O)C)C4=C5C=CNC5=NC=C4 [AZD6738] (first compound max 1 µM, 7x7, partner max 10 µM)", "group_label": 1}
{"molecule": "NC1(C(=O)N[C@@H](CCO)c2ccc(Cl)cc2)CCN(c2ncnc3[nH]ccc23)CC1 [Capivasertib] + CC(=O)c1c(C)c2cnc(Nc3ccc(N4CCNCC4)cn3)nc2n(C2CCCC2)c1=O [Palbociclib] (first compound max 10 µM, 7x7, partner max 10 µM)", "group_label": 0}
{"molecule": "NC1(C(=O)N[C@@H](CCO)c2ccc(Cl)cc2)CCN(c2ncnc3[nH]ccc23)CC1 [Capivasertib] + COc1nnc2ccc(N3CCC(c4ccc(OCCN5CCN(C)C(=O)[C@H]5C)cc4)CC3)nn12 [AZD5153] (first compound max 10 µM, 7x7, partner max 1 µM)", "group_label": 0}
{"molecule": "Cc1cc2ncnn2cc1Nc1ncc2c(n1)n(C1CCOCC1)c(=O)n2C [AZD7648] + CCN(CCO)CCCOc1ccc2c(Nc3cc(CC(=O)Nc4cccc(F)c4)[nH]n3)ncnc2c1 [AZD2811] (first compound max 10 µM, 7x7, partner max 1 µM)", "group_label": 1}
{"molecule": "Cc1c2c(nn1C)CSCc1cc(n(C)n1)CSc1cc(c3ccccc3c1)OCCCc1c(C(=O)O)n(C)c3c-2c(Cl)ccc13 [AZD5991] + CN(C)CCCOc1ccc(-c2ccc3ncc4c(c3c2)n(C2CCOCC2)c(=O)n4C)cn1 [AZD0156] (first compound max 1 µM, 7x7, partner max 1 µM)", "group_label": 0}
{"molecule": "NC1(C(=O)N[C@@H](CCO)c2ccc(Cl)cc2)CCN(c2ncnc3[nH]ccc23)CC1 [Capivasertib] + Cn1cnc2c(F)c(Nc3ccc(Br)cc3Cl)c(C(=O)NOCCO)cc21 [Selumetinib] (first compound max 10 µM, 7x7, partner max 10 µM)", "group_label": 1}
{"molecule": "Cc1cc2ncnn2cc1Nc1ncc2c(n1)n(C1CCOCC1)c(=O)n2C [AZD7648] + O=C(c1cc(Cc2n[nH]c(=O)c3ccccc23)ccc1F)N1CCN(C(=O)C2CC2)CC1 [Olaparib] (first compound max 10 µM, 7x7, partner max 10 µM)", "group_label": 0}
{"molecule": "CC1(C)CCC(CN2CCN(c3ccc(C(=O)NS(=O)(=O)c4ccc(NCC5CCOCC5)c([N+](=O)[O-])c4)c(Oc4cnc5[nH]ccc5c4)c3)CC2)=C(c2ccc(Cl)cc2)C1 [Venetoclax] + COc1cc(Nc2ncc3c(n2)-c2ccc(Cl)cc2C(c2c(F)cccc2OC)=NC3)ccc1C(=O)O [Alisertib] (first compound max 1 µM, 7x7, partner max 10 µM)", "group_label": 1}
{"molecule": "CCN(CCO)CCCOc1ccc2c(Nc3cc(CC(=O)Nc4cccc(F)c4)[nH]n3)ncnc2c1 [AZD2811] + O=C(c1cc(Cc2n[nH]c(=O)c3ccccc23)ccc1F)N1CCN(C(=O)C2CC2)CC1 [Olaparib] (first compound max 1 µM, 7x7, partner max 10 µM)", "group_label": 1}
{"molecule": "NC1(C(=O)N[C@@H](CCO)c2ccc(Cl)cc2)CCN(c2ncnc3[nH]ccc23)CC1 [Capivasertib] + CCN(CCO)CCCOc1ccc2c(Nc3cc(CC(=O)Nc4cccc(F)c4)[nH]n3)ncnc2c1 [AZD2811] (first compound max 10 µM, 7x7, partner max 1 µM)", "group_label": 0}
{"molecule": "CC1(C)CCC(CN2CCN(c3ccc(C(=O)NS(=O)(=O)c4ccc(NCC5CCOCC5)c([N+](=O)[O-])c4)c(Oc4cnc5[nH]ccc5c4)c3)CC2)=C(c2ccc(Cl)cc2)C1 [Venetoclax] + Cn1cnc2c(F)c(Nc3ccc(Br)cc3Cl)c(C(=O)NOCCO)cc21 [Selumetinib] (first compound max 1 µM, 7x7, partner max 3 µM)", "group_label": 0}
{"molecule": "CC1(C)CCC(CN2CCN(c3ccc(C(=O)NS(=O)(=O)c4ccc(NCC5CCOCC5)c([N+](=O)[O-])c4)c(Oc4cnc5[nH]ccc5c4)c3)CC2)=C(c2ccc(Cl)cc2)C1 [Venetoclax] + CN(C)CCCOc1ccc(-c2ccc3ncc4c(c3c2)n(C2CCOCC2)c(=O)n4C)cn1 [AZD0156] (first compound max 1 µM, 7x7, partner max 1 µM)", "group_label": 0}
{"molecule": "Cc1c2c(nn1C)CSCc1cc(n(C)n1)CSc1cc(c3ccccc3c1)OCCCc1c(C(=O)O)n(C)c3c-2c(Cl)ccc13 [AZD5991] + C=CCn1c(=O)c2cnc(Nc3ccc(N4CCN(C)CC4)cc3)nc2n1-c1cccc(C(C)(C)O)n1 [AZD1775] (first compound max 1 µM, partner max 1 µM)", "group_label": 1}

###

system: LS-1034 (Colorectal Carcinoma); assay: Bliss excess, mean over the matrix (fraction); higher = more synergy
Classify by measured Bliss excess: t if it is equal to or exceeds -0.003, f if it is smaller.

{"compound": "CN(CCO)CC[C@H](CSc1ccccc1)Nc1ccc(S(=O)(=O)NC(=O)c2ccc(N3CCC([C@@H](O)c4ccccc4-c4ccc(Cl)cc4)CC3)cc2)cc1S(=O)(=O)C(F)(F)F [AZD4320] + C[C@@H]1COCCN1C2=NC(=NC(=C2)C3(CC3)[S@](=N)(=O)C)C4=C5C=CNC5=NC=C4 [AZD6738] (first compound max 1 µM, 7x7, partner max 10 µM)", "group_label": "f"}
{"compound": "CN(CCO)CC[C@H](CSc1ccccc1)Nc1ccc(S(=O)(=O)NC(=O)c2ccc(N3CCC([C@@H](O)c4ccccc4-c4ccc(Cl)cc4)CC3)cc2)cc1S(=O)(=O)C(F)(F)F [AZD4320] + CC(=O)O[C@H]1C(=O)[C@@]2(C)[C@H]([C@H](OC(=O)c3ccccc3)[C@]3(O)C[C@H](OC(=O)[C@H](O)[C@@H](NC(=O)c4ccccc4)c4ccccc4)C(C)=C1C3(C)C)[C@]1(OC(C)=O)CO[C@@H]1C[C@@H]2O [Paclitaxel] (first compound max 1 µM, 7x7, partner max 3 µM)", "group_label": "t"}
{"compound": "CN(CCO)CC[C@H](CSc1ccccc1)Nc1ccc(S(=O)(=O)NC(=O)c2ccc(N3CCC([C@@H](O)c4ccccc4-c4ccc(Cl)cc4)CC3)cc2)cc1S(=O)(=O)C(F)(F)F [AZD4320] + C[C@@H](Nc1cc(F)cc(F)c1)c1cc(C(=O)N(C)C)cc2c(=O)cc(N3CCOCC3)oc12 [AZD8186] (first compound max 1 µM, 7x7, partner max 3 µM)", "group_label": "t"}
{"compound": "NC1(C(=O)N[C@@H](CCO)c2ccc(Cl)cc2)CCN(c2ncnc3[nH]ccc23)CC1 [Capivasertib] + COc1nnc2ccc(N3CCC(c4ccc(OCCN5CCN(C)C(=O)[C@H]5C)cc4)CC3)nn12 [AZD5153] (first compound max 10 µM, 7x7, partner max 1 µM)", "group_label": "t"}
{"compound": "C[C@@H](c1ccc2nccn2c1)n1nnc2ncc(-c3cnn(C)c3)nc21 [Savolitinib] + Cc1c2c(nn1C)CSCc1cc(n(C)n1)CSc1cc(c3ccccc3c1)OCCCc1c(C(=O)O)n(C)c3c-2c(Cl)ccc13 [AZD5991] (first compound max 1 µM, 7x7, partner max 1 µM)", "group_label": "f"}
{"compound": "C[C@@H]1COCCN1c1cc(C2([S@](C)(=N)=O)CC2)nc(-c2ccnc3[nH]ccc23)n1 [AZD6738] + O=C(c1cc(Cc2n[nH]c(=O)c3ccccc23)ccc1F)N1CCN(C(=O)C2CC2)CC1 [Olaparib] (first compound max 10 µM, 7x7, partner max 10 µM)", "group_label": "f"}
